// data source = patent US20200062863A1

system.tested: T1, human Factor XIIa-beta (human, UniProt P00748 354-615, limits assumed)
T1 construct: Bought from Enzyme Research Laboratories; also called FXIIa beta; FXIIa-beta
T1 sequence: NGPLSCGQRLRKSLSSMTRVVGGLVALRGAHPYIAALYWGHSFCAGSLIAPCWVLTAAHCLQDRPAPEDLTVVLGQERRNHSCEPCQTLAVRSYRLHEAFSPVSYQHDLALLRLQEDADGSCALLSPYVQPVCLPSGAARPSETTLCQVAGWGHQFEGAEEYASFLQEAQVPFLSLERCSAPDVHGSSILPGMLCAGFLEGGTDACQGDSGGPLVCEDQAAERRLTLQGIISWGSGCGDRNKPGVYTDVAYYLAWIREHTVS
assay.explanation: SPR (Biacore A100), unpurified IgG4 supernatant captured on anti-human IgG, single FXIIa beta concentration (100 nM), 37 C, 1:1 fit; estimated
property.name: pKd
Lab note: report pKd as minus log10 of the concentration in molar units, number only.

// below: answered binders
VR46 (antibody, V domains shown, Libraries were built on germline stop templates, so frameworks may differ) VH: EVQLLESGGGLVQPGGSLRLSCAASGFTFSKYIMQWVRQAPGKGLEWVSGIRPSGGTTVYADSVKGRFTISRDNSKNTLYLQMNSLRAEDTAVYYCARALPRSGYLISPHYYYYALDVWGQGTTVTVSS VL: QSVLTQPPSASGTPGQRVTISCSGSSSNIGRNYVYWYQQLPGTAPKLLIYSNNQRPSGVPDRFSGSKSGTSASLAISGLRSEDEADYYCASWELPLRGVFGGGTKLTVL; 8.18
VR160 (antibody, V domains shown, Libraries were built on germline stop templates, so frameworks may differ) VH: EVQLLESGGGLVQPGGSLRLSCAASGFTFSKYIMQWVRQAPGKGLEWVSGIRPSGGTTVYADSVKGRFTISRDNSKNTLYLQMNSLRAEDTAVYYCARALPRSGYLMKPGYYYYALDVWGQGTTVTVSS VL: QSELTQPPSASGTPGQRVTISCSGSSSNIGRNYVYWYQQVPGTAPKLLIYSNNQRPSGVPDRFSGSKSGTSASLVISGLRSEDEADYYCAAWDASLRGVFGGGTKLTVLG; 8.15

Now consider the entry below.
Given item VR107 (antibody, V domains shown, Libraries were built on germline stop templates, so frameworks may differ) VH: EVQLLESGGGLVQPGGSLRLSCAASGFTFSKYIMQWVRQAPGKGLEWVSGINPATRTTVYADSVKGRFTISRDNSKNTLYLQMNSLRAEDTAVYYCARALPRSGYLISPHYYYYALDVWGQGTTVTVSS VL: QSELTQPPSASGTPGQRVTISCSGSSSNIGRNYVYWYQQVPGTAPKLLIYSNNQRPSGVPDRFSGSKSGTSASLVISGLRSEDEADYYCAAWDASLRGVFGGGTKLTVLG , the value recorded as its pKd is 8.61
